Items are presented alongside their recorded SGCB cell-surface expression functional score (log10).
B1: library; numbered along this chain (parent)
chain: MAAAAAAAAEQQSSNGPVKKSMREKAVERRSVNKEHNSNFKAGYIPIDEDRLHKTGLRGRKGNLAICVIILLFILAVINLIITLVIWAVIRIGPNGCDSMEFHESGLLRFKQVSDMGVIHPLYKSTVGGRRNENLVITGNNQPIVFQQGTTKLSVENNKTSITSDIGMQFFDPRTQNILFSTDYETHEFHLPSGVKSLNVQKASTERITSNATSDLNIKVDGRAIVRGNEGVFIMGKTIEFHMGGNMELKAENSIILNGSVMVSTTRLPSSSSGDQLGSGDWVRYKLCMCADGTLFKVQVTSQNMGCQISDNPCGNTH

# Variants of: B1
# testSummary: SGCB cell-surface expression functional score (HA stain, bin4 vs bin1, normalised to synonymous) (log10 ratio); higher = more cell-surface SGCB (functional)
Form: value (number only, do not type unit).

Consider the worked cases shown below.
| variantCode | quantitativeReadout |
| --- | --- |
| V27W | 0.1 |
| Q147R | -0.06 |
| L64Y | 0.16 |

IN: Please give measured SGCB cell-surface expression functional score (log10) of the following entry: "P269Q"
OUT: 0.32

IN: Please give measured SGCB cell-surface expression functional score (log10) of the following entry: "L57M"
OUT: 0.09

IN: Please give measured SGCB cell-surface expression functional score (log10) of the following entry: "D98H"
OUT: 0.4
